- Test system: KRAS PDC multicell spheroid viability;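 further: spheroids exposed to compounds for 7 days; 100% = DMSO vehicle control viability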
- test-name: Anticancer human tumor 825966-067-R-J1-PDC patient-derived colon carcinoma cell line growth inhibition [KRAS2]
- test-context: second compound 10 µM; first compound 3.16 µM; active compounds read low
quantity-name: viability, T/C (%)

INSERT INTO assay_data (compound, test_system, unit_string, meas_value) VALUES
  ('CCNC(=O)CC1N=C(c2ccc(Cl)cc2)c2cc(OC)ccc2-n2c(C)nnc21 (stereo not given) + CC1OCC2(CCN(c3cnc(Sc4ccnc(N)c4Cl)c(N)n3)CC2)C1N', 'KRAS PDC multicell spheroid viability', '%', 67.6),
  ('COc1cc2nccc(Oc3ccc(NC(=O)C4(C(=O)Nc5ccc(F)cc5)CC4)cc3)c2cc1OC + CC1OCC2(CCN(c3cnc(Sc4ccnc(N)c4Cl)c(N)n3)CC2)C1N', 'KRAS PDC multicell spheroid viability', '%', 1.1),
  ('COc1cc2nccc(Oc3ccc(NC(=O)C4(C(=O)Nc5ccc(F)cc5)CC4)cc3)c2cc1OC + COc1cc2nc(C)nc(NC(C)c3cc(N)cc(C(F)(F)F)c3)c2cc1OC1CCOC1', 'KRAS PDC multicell spheroid viability', '%', 0.32),
  ('COc1cc(Nc2ncc3c(n2)-c2ccc(Cl)cc2C(c2c(F)cccc2OC)=NC3)ccc1C(=O)O + CNCc1ccccc1-c1csc(C(C)Nc2nc(C)nc3cc(OC)c(OC)cc23)c1', 'KRAS PDC multicell spheroid viability', '%', 0.17),
  ('COc1cc2nccc(Oc3ccc(NC(=O)C4(C(=O)Nc5ccc(F)cc5)CC4)cc3)c2cc1OC + C=CC(=O)N1CCN(c2nc(=O)n(-c3c(C)ccnc3C(C)C)c3nc(-c4c(O)cccc4F)c(F)cc23)C(C)C1', 'KRAS PDC multicell spheroid viability', '%', 2),
  ('CC(C)NCC(C(=O)N1CCN(c2ncnc3c2C(C)CC3O)CC1)c1ccc(Cl)cc1 (stereo not given) + CNCc1ccccc1-c1csc(C(C)Nc2nc(C)nc3cc(OC)c(OC)cc23)c1', 'KRAS PDC multicell spheroid viability', '%', 0.36),
  ('CC(=O)OC12COC1CC(O)C1(C)C(=O)C(O)C3=C(C)C(OC(=O)C(O)C(NC(=O)OC(C)(C)C)c4ccccc4)CC(O)(C(OC(=O)c4ccccc4)C21)C3(C)C (stereo not given) + CC1OCC2(CCN(c3cnc(Sc4ccnc(N)c4Cl)c(N)n3)CC2)C1N', 'KRAS PDC multicell spheroid viability', '%', 10.1),
  ('Cn1nccc1Nc1nccc(-c2cc3c(s2)C(C)(C)N(CCN2CCOCC2)C3=O)n1 + COc1cc2nc(C)nc(NC(C)c3cc(N)cc(C(F)(F)F)c3)c2cc1OC1CCOC1', 'KRAS PDC multicell spheroid viability', '%', 0.32),
  ('Cn1nccc1Nc1nccc(-c2cc3c(s2)C(C)(C)N(CCN2CCOCC2)C3=O)n1 + CC1OCC2(CCN(c3cnc(Sc4ccnc(N)c4Cl)c(N)n3)CC2)C1N', 'KRAS PDC multicell spheroid viability', '%', 12.1),
  ('CC1(C)CCC(CN2CCN(c3ccc(C(=O)NS(=O)(=O)c4ccc(NCC5CCOCC5)c([N+](=O)[O-])c4)c(Oc4cnc5[nH]ccc5c4)c3)CC2)=C(c2ccc(Cl)cc2)C1 + C=CC(=O)N1CCN(c2nc(=O)n(-c3c(C)ccnc3C(C)C)c3nc(-c4c(O)cccc4F)c(F)cc23)C(C)C1', 'KRAS PDC multicell spheroid viability', '%', 9.64),
  ('COC(=O)c1ccc2c(C(=Nc3ccc(N(C)C(=O)CN4CCN(C)CC4)cc3)c3ccccc3)c(O)[nH]c2c1 + COc1cc2nc(C)nc(NC(C)c3cc(N)cc(C(F)(F)F)c3)c2cc1OC1CCOC1', 'KRAS PDC multicell spheroid viability', '%', 0.13),
  ('COC(=O)c1ccc2c(C(=Nc3ccc(N(C)C(=O)CN4CCN(C)CC4)cc3)c3ccccc3)c(O)[nH]c2c1 + CNCc1ccccc1-c1csc(C(C)Nc2nc(C)nc3cc(OC)c(OC)cc23)c1', 'KRAS PDC multicell spheroid viability', '%', 0.17),
  ('O=C(c1cc(Cc2n[nH]c(=O)c3ccccc23)ccc1F)N1CCN(C(=O)C2CC2)CC1 + C=CC(=O)N1CCN(c2nc(=O)n(-c3c(C)ccnc3C(C)C)c3nc(-c4c(O)cccc4F)c(F)cc23)C(C)C1', 'KRAS PDC multicell spheroid viability', '%', 66.5),
  ('COc1cc(Nc2ncc3c(n2)-c2ccc(Cl)cc2C(c2c(F)cccc2OC)=NC3)ccc1C(=O)O + C=CC(=O)N1CCN(c2nc(=O)n(-c3c(C)ccnc3C(C)C)c3nc(-c4c(O)cccc4F)c(F)cc23)C(C)C1', 'KRAS PDC multicell spheroid viability', '%', 116),
  ('CC(=O)OC12COC1CC(O)C1(C)C(=O)C(O)C3=C(C)C(OC(=O)C(O)C(NC(=O)OC(C)(C)C)c4ccccc4)CC(O)(C(OC(=O)c4ccccc4)C21)C3(C)C (stereo not given) + COc1cc2nc(C)nc(NC(C)c3cc(N)cc(C(F)(F)F)c3)c2cc1OC1CCOC1', 'KRAS PDC multicell spheroid viability', '%', 12.4),
  ('CCNC(=O)CC1N=C(c2ccc(Cl)cc2)c2cc(OC)ccc2-n2c(C)nnc21 (stereo not given) + C=CC(=O)N1CCN(c2nc(=O)n(-c3c(C)ccnc3C(C)C)c3nc(-c4c(O)cccc4F)c(F)cc23)C(C)C1', 'KRAS PDC multicell spheroid viability', '%', 32.4),
  ('O=C(c1cc(Cc2n[nH]c(=O)c3ccccc23)ccc1F)N1CCN(C(=O)C2CC2)CC1 + COc1cc2nc(C)nc(NC(C)c3cc(N)cc(C(F)(F)F)c3)c2cc1OC1CCOC1', 'KRAS PDC multicell spheroid viability', '%', 72),
  ('CC1OCC2(CCN(c3cnc(Sc4ccnc(N)c4Cl)c(N)n3)CC2)C1N (stereo not given) + COc1cc2nc(C)nc(NC(C)c3cc(N)cc(C(F)(F)F)c3)c2cc1OC1CCOC1', 'KRAS PDC multicell spheroid viability', '%', 8.46),
  ('CC1OCC2(CCN(c3cnc(Sc4ccnc(N)c4Cl)c(N)n3)CC2)C1N (stereo not given) + CNCc1ccccc1-c1csc(C(C)Nc2nc(C)nc3cc(OC)c(OC)cc23)c1', 'KRAS PDC multicell spheroid viability', '%', 0.22),
  ('CC1OCC2(CCN(c3cnc(Sc4ccnc(N)c4Cl)c(N)n3)CC2)C1N (stereo not given) + C=CC(=O)N1CCN(c2nc(=O)n(-c3c(C)ccnc3C(C)C)c3nc(-c4c(O)cccc4F)c(F)cc23)C(C)C1', 'KRAS PDC multicell spheroid viability', '%', 70.1);
